assay: Waters SunFire C18, 150 × 2.1 mm, 3.5 µm, 25 °C, 0.25 mL/min, estimated dead time 1.3 min; A: water + 0.1% formic acid; B: methanol; gradient (min/%B) 0/5 30/100; conditions: stereoisomer not certain
Below, each entry is listed alongside its reported LC retention time.

{"COMPOUND": "CC=C1CN2CCC34CC5C6CC7c8c(c9ccccc9n8C)CC(C6COC5(C)OC35C2CC1C(C(=O)OC)N5c1ccccc14)N7C (centres undefined)", "UNIT SPEC": "min", "LC retention time": 17.4}
{"COMPOUND": "CC=C1CN2CCC34c5ccccc5N5C(C(=O)OC)C1CC2C53OC(=O)c1c4ccc(O)c1O (centres undefined)", "UNIT SPEC": "min", "LC retention time": 19.6}
{"COMPOUND": "CCC1CC2CN3CCc4c([nH]c5cc(OC)c(OC)cc45)C(C(=O)OC)(C2)C13 (centres undefined)", "UNIT SPEC": "min", "LC retention time": 16.3}
{"COMPOUND": "C=CC1CN2CCc3c([nH]c4ccccc34)C2CC1C(=COC)C(=O)OC (centres undefined)", "UNIT SPEC": "min", "LC retention time": 16.7}
{"COMPOUND": "CC=C1CNC2Cc3c([nH]c4ccccc34)C(=O)CC1C2C(=O)OC (centres undefined)", "UNIT SPEC": "min", "LC retention time": 13.4}
{"COMPOUND": "OC1OCC=C2CN3CCC45c6ccccc6NC4C1C2CC35 (centres undefined)", "UNIT SPEC": "min", "LC retention time": 9.62}
{"COMPOUND": "C=CC12C=CCN3CCC4(c5ccccc5NC(=O)C4C1)C32 (centres undefined)", "UNIT SPEC": "min", "LC retention time": 11.7}
{"COMPOUND": "COc1cc2c(cc1OC)C13CCN(C)CC45OC4COC4CC(=O)N2C1C4C5CC3=O (centres undefined)", "UNIT SPEC": "min", "LC retention time": 10.1}
{"COMPOUND": "COC(=O)C1(COC(=O)C=Cc2ccccc2)C2CC(N(C)CC23OC3C)C23Nc4ccccc4C21CC(=O)O3 (centres undefined)", "UNIT SPEC": "min", "LC retention time": 29.9}
